Can you tell me Mouse weight (%) for the items I'm about to list?
System: sarcoma SJSA-1 tumor model
SETUP_CONDITIONS: 45 mg/kg once a week for three weeks; Table 7
Experimental: Test objective: To investigate the antitumor efficacy of the above compounds in an animal tumor model of sarcoma SJSA-1. Test drug: Polypeptide conjugate, Irinotecan, Belotecan and normal saline control group. Test animals: 6-8 weeks old BALB/c mice, all female. SJSA-1 cells were purchased from ATCC and cultured in a DMEM medium containing 10% fetal bovine serum at 37° C. in 5% CO2. Passaging was performed every three days, and cells within 15 generations were used. […]
Where a SMILES comes first, the peptide text is derived from it. The star is where a group is joined. Belotecan = CC[C@@]1(O)C(=O)OCc2c1cc1n(c2=O)Cc2c-1nc1ccccc1c2CCN(C(C)C)*; X2 = CCCCN(CCc1c2c(nc3ccccc13)-c1cc3c(c(=O)n1C2)COC(=O)[C@]3(O)CC)*; X1 = CC[C@@]1(O)C(=O)OCc2c1cc1n(c2=O)Cc2c-1nc1ccccc1c2CCN(C1CCC1)*; Propanoyl(3-maleimido) = O=C1C=CC(=O)N1CCC(=O)*; PEG6 = NCCOCCOCCOCCOCCOCCOCCC(=O)O

For CC[C@@]1(O)C(=O)OCc2c1cc1n(c2=O)Cc2c-1nc1ccccc1c2CCN(C(=O)[C@H](CC(C)C)NC(=O)[C@H](CC(N)=O)NC(=O)[C@H](C)NC(=O)[C@H](C)NC(=O)CCOCCOCCOCCOCCOCCOCCNC(=O)CCN1C(=O)C=CC1=O)C(C)C [MI-6PEG-AANL-Belotecan] ({Propanoyl(3-maleimido)-PEG6}-AANL-Belotecan) the compound record lists Mouse weight (%) as +21%

For CC[C@@]1(O)C(=O)OCc2c1cc1n(c2=O)Cc2c-1nc1ccccc1c2CCN(C(=O)[C@H](CC(C)C)NC(=O)[C@H](CC(N)=O)NC(=O)[C@H](C)NC(=O)[C@H](C)NC(=O)CCOCCOCCOCCOCCOCCOCCNC(=O)CCN1C(=O)C=CC1=O)C1CCC1 [MI-6PEG-AANL-D7] ({Propanoyl(3-maleimido)-PEG6}-AANL-X1) the compound record lists Mouse weight (%) as +19%

For CCCCN(CCc1c2c(nc3ccccc13)-c1cc3c(c(=O)n1C2)COC(=O)[C@]3(O)CC)C(=O)[C@H](CC(C)C)NC(=O)[C@H](CC(N)=O)NC(=O)[C@H](C)NC(=O)[C@H](C)NC(=O)CCOCCOCCOCCOCCOCCOCCNC(=O)CCN1C(=O)C=CC1=O [MI-6PEG-AANL-D4] ({Propanoyl(3-maleimido)-PEG6}-AANL-X2) the compound record lists Mouse weight (%) as +19%

====

System: sarcoma SJSA-1 tumor model
SETUP_CONDITIONS: 45 mg/kg once a week for three weeks; Table 2
Where a SMILES comes first, the peptide text is derived from it. The star is where a group is joined. X6 = CCCCCN(CCc1c2c(nc3ccccc13)-c1cc3c(c(=O)n1C2)COC(=O)[C@]3(O)CC)*; X1 = CC[C@@]1(O)C(=O)OCc2c1cc1n(c2=O)Cc2c-1nc1ccccc1c2CCN(C1CCC1)*; X4 = CCCN(CCc1c2c(nc3ccccc13)-c1cc3c(c(=O)n1C2)COC(=O)[C@]3(O)CC)*; X3 = CC[C@@]1(O)C(=O)OCc2c1cc1n(c2=O)Cc2c-1nc1ccccc1c2CCN(C1CC1)*; Propanoyl(3-maleimido) = O=C1C=CC(=O)N1CCC(=O)*; PEG6 = NCCOCCOCCOCCOCCOCCOCCC(=O)O
Can you tell me Mouse weight (%) for the items I'm about to list?

For CC[C@@]1(O)C(=O)OCc2c1cc1n(c2=O)Cc2c-1nc1ccccc1c2CCN(C(=O)CNC(=O)[C@H](Cc1ccccc1)NC(=O)CNC(=O)CNC(=O)CCOCCOCCOCCOCCOCCOCCNC(=O)CCN1C(=O)C=CC1=O)C1CC1 [MI-6PEG-GGFG-D6] ({Propanoyl(3-maleimido)-PEG6}-GGFG-X3) the compound record lists Mouse weight (%) as +2%

For CCCCCN(CCc1c2c(nc3ccccc13)-c1cc3c(c(=O)n1C2)COC(=O)[C@]3(O)CC)C(=O)CNC(=O)[C@H](CC(N)=O)NC(=O)[C@H](C)NC(=O)[C@H](C)NC(=O)CCOCCOCCOCCOCCOCCOCCNC(=O)CCN1C(=O)C=CC1=O [MI-6PEG-AANG-D4] ({Propanoyl(3-maleimido)-PEG6}-AANG-X6) the compound record lists Mouse weight (%) as +26%

For CC[C@@]1(O)C(=O)OCC2=C1C=C1c3nc4ccccc4c(CCN(C(=O)OCc4ccc(NC(=O)[C@H](CC(N)=O)NC(=O)[C@H](C)NC(=O)[C@H](C)NC(=O)CCOCCOCCOCCOCCOCCOCCNC(=O)CCN5C(=O)C=CC5=O)cc4)C(C)C)c3CN1C2 the compound record lists Mouse weight (%) as −5%

For CC[C@@]1(O)C(=O)OCc2c1cc1n(c2=O)Cc2c-1nc1ccccc1c2CCN(C(=O)CNC(=O)[C@H](CC(N)=O)NC(=O)[C@H](C)NC(=O)[C@H](C)NC(=O)CCOCCOCCOCCOCCOCCOCCNC(=O)CCN1C(=O)C=CC1=O)C1CC1 [MI-6PEG-AANG-D6] ({Propanoyl(3-maleimido)-PEG6}-AANG-X3) the compound record lists Mouse weight (%) as +3%

For CCCN(CCc1c2c(nc3ccccc13)-c1cc3c(c(=O)n1C2)COC(=O)[C@]3(O)CC)C(=O)CNC(=O)[C@H](CC(N)=O)NC(=O)[C@H](C)NC(=O)[C@H](C)NC(=O)CCOCCOCCOCCOCCOCCOCCNC(=O)CCN1C(=O)C=CC1=O [MI-6PEG-AANG-D3] ({Propanoyl(3-maleimido)-PEG6}-AANG-X4) the compound record lists Mouse weight (%) as +26%

For CC[C@@]1(O)C(=O)OCc2c1cc1n(c2=O)Cc2c-1nc1ccccc1c2CCN(C(=O)CNC(=O)[C@H](CC(N)=O)NC(=O)[C@H](C)NC(=O)[C@H](C)NC(=O)CCOCCOCCOCCOCCOCCOCCNC(=O)CCN1C(=O)C=CC1=O)C1CCC1 [MI-6PEG-AANG-D7] ({Propanoyl(3-maleimido)-PEG6}-AANG-X1) the compound record lists Mouse weight (%) as +26%
